Provide the reported IC50 of each item.
Test system: MCF-7 (estrogen receptor-positive and HER2-negative breast cancer)
assay.summary: Antiproliferative activity, SRB assay, MCF-7
Assay type: cell-based, human
test.parameters: read-out: IC50 MCF-7; SRB assay, 50% reduction relative to untreated cells
One number for each entry, in µM.

Sample records with IC50:
C=CC(=C)CC[C@]1(C)[C@H](C)C[C@H](OC)[C@@]23C(=C[C@H](OC(=O)[C@@H](C)CC)C[C@@H]12)[C@@H](OC(C)=O)O[C@H]3OC(C)=O [Compound 6]; 5.82
C=CC(=C)CCC1(C)C(C)CC(O)C23C(=CC(OC(=O)C(C)CC)CC12)C(OC(C)=O)OC3OC(C)=O (stereo not shown) [Compound 17]; 0.89

Okay, here is my list. What is IC50 for each of these?
1. C=CC(=C)CC[C@]1(C)[C@H](C)C[C@H](OC)[C@@]23C(=C[C@H](OC(=O)CC)C[C@@H]12)[C@@H](OC(C)=O)O[C@H]3OC(C)=O [Compound 4]
2. C=CC(=C)CC[C@]1(C)[C@H](C)C[C@H](OC)[C@@]23C(=C[C@H](OC(=O)C(C)C)C[C@@H]12)[C@@H](OC(C)=O)O[C@H]3OC(C)=O [Compound 3]
3. C=CC(=C)CC[C@]1(C)[C@H](C)C[C@H](OC(=O)CCCCC)[C@@]23C(=C[C@H](O)C[C@@H]12)[C@@H](OC(C)=O)O[C@H]3OC(C)=O [Compound 14]
4. C=CC(=C)CCC1(C)C(C)CC(O)C23C(=CC(OC(=O)/C=C/C=C/CCCCC)CC12)C(OC(C)=O)OC3OC(C)=O (stereo not shown) [Compound 19, corymbulosin A]
5. C=CC(=C)CC[C@]1(C)[C@H](C)C[C@H](OC(=O)CCCCCCCCC)[C@@]23C(=C[C@H](OC(C)=O)C[C@@H]12)[C@@H](OC(C)=O)O[C@H]3OC(C)=O [Compound 9]

**A:**
4.94
0.5
5.19
0.44
31.7

----------
Please provide measured IC50 for the entries that follow.
Tested on: KB-VIN (P-gp-overexpressing MDR subline of KB)
assay.summary: Antiproliferative activity, SRB assay, KB-VIN
test.parameters: read-out: IC50 KB-VIN, 50% reduction relative to untreated cells

Recorded IC50, per entry:
C=CC(=C)CCC1(C)C(C)CC(O)C23C(=CC(OC(=O)/C=C/C=C/CCCCC)CC12)C(OC(C)=O)OC3OC(C)=O (stereo not drawn) [Compound 19, corymbulosin A]; 0.45 µM
C=CC(=C)CC[C@]1(C)[C@H](C)C[C@H](OC(=O)CCCCC)[C@@]23C(=C[C@H](O)C[C@@H]12)[C@@H](OC(C)=O)O[C@H]3OC(C)=O [Compound 14]; 4.88 µM

Let us move to another entry and its IC50.
**Q:** Query: IC50; subject: C=CC(=C)CC[C@]1(C)[C@H](C)C[C@H](OC)[C@@]23C(=C[C@H](OC(=O)CC)C[C@@H]12)[C@@H](OC(C)=O)O[C@H]3OC(C)=O [Compound 4]
**A:** 4.92 µM

----------
System: KB-VIN (P-gp-overexpressing MDR subline of KB)
measured.parameter: pIC50
Numbers only, as −log10 of the molar value.

**Q:** Field request: pIC50 | item: C=CC(=C)CC[C@]1(C)[C@H](C)C[C@H](OC)[C@@]23C(=C[C@H](OC(=O)C(C)C)C[C@@H]12)[C@@H](OC(C)=O)O[C@H]3OC(C)=O [Compound 3]
**A:** 6.31

Numbers sourced from paper PMC6421850.
